protocol_summary: n-octanol-phosphate buffer partition coefficient, log D in CH3CN-MeOH-phosphate buffer at pH 5.2 by HPLC-UV analysis
Format: physicochemical
Quick reference for logD among some compounds

smiles_record	logD
Clc1ccc2c(NCCCN3CCCCC3)c3c(nc2c1)c1cc(Cl)ccc1n3CCN1CCCC1	0.78
Clc1ccc2c(NCCN3CCCC3)c3c(nc2c1)c1cc(Cl)ccc1n3CCN1CCCC1	1.05
CCN(CC)CCNc1c2ccc(Cl)cc2nc2c3ccccc3n(CCN3CCCC3)c12	0.05
CCN(CC)CCCNc1c2ccc(Cl)cc2nc2c3cc(Cl)ccc3n(CCN3CCOCC3)c12	1.5
CCN(CC)CCCNc1c2ccc(Cl)cc2nc2c3cc(Cl)ccc3n(CCN3CCCC3)c12	0.54
Clc1ccc2c(NCCCN3CCOCC3)c3c(nc2c1)c1ccccc1n3CCN1CCCC1	0.69
